Reference for the values: paper PMC5958064

Tested on: AHR
measurement-notes: Cyp1a1 mRNA induction in TH17cond CD4+ T cells (qPCR)
Assay type: cell-based, mouse
assay-setup: D3 TH17cond CD4+ T cells, 2 h; read-out: EC50 to drive Cyp1A1 mRNA expression
quantity-kind: EC50 (µM)

1. Nc1ccccc1C(=O)CC(N)C(=O)O (stereo not shown): 11.1

---

measurement-target: System L transporter SLC7A5 (Mus musculus, UniProt Q9Z127)
Construct: endogenous in cells
Sequence (Q9Z127 whole entry): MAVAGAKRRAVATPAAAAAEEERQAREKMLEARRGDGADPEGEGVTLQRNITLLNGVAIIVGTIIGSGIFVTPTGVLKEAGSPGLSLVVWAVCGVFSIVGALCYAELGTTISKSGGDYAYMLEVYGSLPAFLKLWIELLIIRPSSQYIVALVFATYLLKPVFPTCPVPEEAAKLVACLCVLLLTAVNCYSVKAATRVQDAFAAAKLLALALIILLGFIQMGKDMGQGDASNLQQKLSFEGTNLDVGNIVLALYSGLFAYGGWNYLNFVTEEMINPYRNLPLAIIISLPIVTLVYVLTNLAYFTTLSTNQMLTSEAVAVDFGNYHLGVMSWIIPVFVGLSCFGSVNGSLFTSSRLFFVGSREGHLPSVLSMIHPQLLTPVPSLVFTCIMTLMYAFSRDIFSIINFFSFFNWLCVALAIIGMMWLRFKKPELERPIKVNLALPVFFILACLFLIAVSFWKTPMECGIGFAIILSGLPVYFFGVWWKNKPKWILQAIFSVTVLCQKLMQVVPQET
Sequence (P10852 whole entry partner): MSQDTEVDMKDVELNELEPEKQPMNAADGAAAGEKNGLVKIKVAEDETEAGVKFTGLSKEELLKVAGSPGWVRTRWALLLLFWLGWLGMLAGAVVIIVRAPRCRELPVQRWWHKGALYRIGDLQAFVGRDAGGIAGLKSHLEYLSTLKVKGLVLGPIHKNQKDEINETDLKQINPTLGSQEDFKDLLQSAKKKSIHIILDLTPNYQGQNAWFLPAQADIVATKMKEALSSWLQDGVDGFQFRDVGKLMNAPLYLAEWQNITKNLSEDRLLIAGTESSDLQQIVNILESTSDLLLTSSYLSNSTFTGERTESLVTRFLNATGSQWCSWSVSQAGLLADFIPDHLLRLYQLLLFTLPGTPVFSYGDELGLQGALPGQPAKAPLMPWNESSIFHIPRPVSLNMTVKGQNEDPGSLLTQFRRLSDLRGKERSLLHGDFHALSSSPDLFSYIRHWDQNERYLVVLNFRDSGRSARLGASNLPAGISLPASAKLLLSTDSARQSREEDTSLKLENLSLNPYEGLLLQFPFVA
measurement-notes: Flow cytometry kynurenine uptake assay (450 nm fluorescence) in T cells
Format: cell-based
assay-setup: CTL, 37 °C, 4 min
Description: For cell surface staining, antibodies conjugated to FITC, PE, APC, Alexafluor 647 (A647), APC-efluor780 (APCe780), and PerCPCy5.5 were obtained from either BD Pharmingen, eBioscience or Biolegend. Fc receptors were blocked using Fc Block (BD Pharmingen). […] Data were acquired on a LSR Fortessa II with DIVA software or a FACSVerse flow cytometer with FACSuite software (BD Biosciences) and analysed using FlowJo software version 9.9.5 (TreeStar). […]
Overview of reported IC50 across a group of compounds:
quantity-kind: IC50 (µM)

1. CC(C)C[C@H](N)C(=O)O: 411
2. NC1(C(=O)O)CC2CCC1C2 (centres unmarked): 492

---

measurement-target: System L transporter SLC7A5 (Mus musculus, UniProt Q9Z127)
Construct: endogenous in cells
measurement-notes: Flow cytometry kynurenine uptake assay (450 nm fluorescence) in T cells
Type: cell-based
assay-setup: D7 rLM CD8+ effector T cells from spleen, ex vivo, 37 °C, 4 min
pIC50: −log10 of the molar value.
quantity-kind: pIC50

1) CC(C)C[C@H](N)C(=O)O: 3.77
2) NC1(C(=O)O)CC2CCC1C2 (centres unmarked): 3.79
